Would you mind telling me the reported pEC50 of each entry?
target: TLR8 (Homo sapiens, UniProt Q9NR97); construct: host or cells: HEK293 (HEK-BLUE-hTLR8); experiment: TLR8 cell based assay (HEK-BLUE-hTLR8, SEAP reporter linked to NF-κB activation); conditions: HEK-BLUE-hTLR8 cells, 24 h treatment, SEAP/QUANTI-Blue readout
Sequence (Q9NR97 27-1041): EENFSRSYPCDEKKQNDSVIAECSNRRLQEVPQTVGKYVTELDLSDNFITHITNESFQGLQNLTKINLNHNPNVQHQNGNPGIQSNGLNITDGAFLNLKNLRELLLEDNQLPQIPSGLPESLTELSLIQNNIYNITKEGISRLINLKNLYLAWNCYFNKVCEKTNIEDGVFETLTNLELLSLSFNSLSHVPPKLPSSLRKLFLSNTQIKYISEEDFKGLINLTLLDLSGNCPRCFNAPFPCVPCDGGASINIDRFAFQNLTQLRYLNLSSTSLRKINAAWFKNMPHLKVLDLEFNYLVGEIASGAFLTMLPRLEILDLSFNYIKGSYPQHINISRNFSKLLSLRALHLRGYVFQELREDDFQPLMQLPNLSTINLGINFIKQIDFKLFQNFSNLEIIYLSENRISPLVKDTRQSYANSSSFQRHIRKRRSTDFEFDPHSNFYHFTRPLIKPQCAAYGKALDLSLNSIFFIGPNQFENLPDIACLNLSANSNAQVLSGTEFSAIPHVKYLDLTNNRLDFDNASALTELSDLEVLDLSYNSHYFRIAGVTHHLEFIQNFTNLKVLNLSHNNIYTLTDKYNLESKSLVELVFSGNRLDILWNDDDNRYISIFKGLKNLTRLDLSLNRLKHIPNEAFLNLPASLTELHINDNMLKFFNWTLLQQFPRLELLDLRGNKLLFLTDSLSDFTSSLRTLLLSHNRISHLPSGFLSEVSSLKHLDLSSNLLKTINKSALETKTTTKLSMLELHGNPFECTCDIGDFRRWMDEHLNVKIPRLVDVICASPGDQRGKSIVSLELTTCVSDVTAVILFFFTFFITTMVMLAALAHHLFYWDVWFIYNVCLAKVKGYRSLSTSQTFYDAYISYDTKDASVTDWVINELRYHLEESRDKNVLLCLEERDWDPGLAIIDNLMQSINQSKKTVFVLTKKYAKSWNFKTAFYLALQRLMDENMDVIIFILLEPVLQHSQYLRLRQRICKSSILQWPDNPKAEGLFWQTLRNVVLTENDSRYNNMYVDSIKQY
pEC50: −log10 of the molar value.

Example entries and their recorded answers appear below.
>  <COMPOUND>
CCCN(CCC)C(=O)C1=Cc2ccc(-c3ccc4c(=O)n(CC(=O)N(C)C)ccc4c3)cc2N=C(N)C1

>  <SUBJECT OF TEST>
TLR8 (Homo sapiens, UniProt Q9NR97)

>  <pEC50>
> 7.00

$$$$
>  <COMPOUND>
CCCN(CCC)C(=O)C1=Cc2ccc(-c3ccc4c(=O)n(Cc5nnn(C)n5)ccc4c3)cc2N=C(N)C1

>  <SUBJECT OF TEST>
TLR8 (Homo sapiens, UniProt Q9NR97)

>  <pEC50>
> 7.00

$$$$
>  <COMPOUND>
CCCN(CCC)C(=O)C1=Cc2ccc(-c3ccc4c(=O)n(CC(C)(C)O)ccc4c3)cc2N=C(N)C1

>  <SUBJECT OF TEST>
TLR8 (Homo sapiens, UniProt Q9NR97)

>  <pEC50>
> 7.00

$$$$
>  <COMPOUND>
CCCN(CCC)C(=O)C1=Cc2ccc(-c3ccc4c(=O)n(CC(N)=O)cnc4c3)cc2N=C(N)C1

>  <SUBJECT OF TEST>
TLR8 (Homo sapiens, UniProt Q9NR97)

>  <pEC50>
6.00 to 7.00

$$$$
>  <COMPOUND>
CCCN(CCC)C(=O)C1=Cc2ccc(-c3ccc4c(=O)n(CCOP(=O)(OC)OC)ccc4c3)cc2N=C(N)C1

>  <SUBJECT OF TEST>
TLR8 (Homo sapiens, UniProt Q9NR97)

>  <pEC50>
> 7.00

$$$$

For every listed record, write down its pEC50.
1. CCCN(CCC)C(=O)C1=Cc2ccc(-c3ccc4c(=O)n(CC(C)C)ccc4c3)cc2N=C(N)C1
2. CCCN(CCC)C(=O)C1=Cc2ccc(-c3ccc4c(=O)n(CC(C)(C)O)c(C)cc4c3)cc2N=C(N)C1
3. CCCN(CCC)C(=O)C1=Cc2ccc(-c3ccc4c(=O)n(Cc5nncn5C)ccc4c3)cc2N=C(N)C1
4. CCCN(CCC)C(=O)C1=Cc2ccc(-c3ccc4c(=O)n(CC(N)=O)ncc4c3)cc2N=C(N)C1
5. CCCN(CCC)C(=O)C1=Cc2c(C)cc(-c3ccc4c(=O)n(CCS(C)(=O)=O)ncc4c3)cc2N=C(N)C1
6. CCCN(CCC)C(=O)C1=Cc2c(F)cc(-c3ccc4c(=O)n(CCS(C)(=O)=O)ncc4c3)cc2N=C(N)C1
7. CCCN(CCC)C(=O)C1=Cc2ccc(-c3ccc4c(=O)n(CC(=O)NC)c(=O)n(C)c4c3)cc2N=C(N)C1
8. CCCN(CCC)C(=O)C1=Cc2ccc(-c3ccc4c(=O)n(Cc5nnc(C)o5)ccc4c3)cc2N=C(N)C1

6.00 to 7.00
> 7.00
> 7.00
> 7.00
> 7.00
> 7.00
> 7.00
> 7.00
